Test: small-molecule microarray binders of probe aDKK1, primary screen, biochemical, biotinylated probe, 635/667 nm fluorescence (AID 1099);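 also: score merges 667nm spot fluorescence with signal to noise across triplicate slides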
Conditions: higher = more signal
// n strictly below 0.08 in composite z-score; y otherwise

- COMPOUND: "CC(C)C(=C=CC[C@H](O)c1ccc(OCCO)cc1)C[C@H](O)COCc1ccccc1"
  CLASS ASSIGNMENT: "n"
- COMPOUND: "CCN(CC)c1ccc(N2CC=CC34O[C@@H]5C=CCOC(=O)[C@@H]5[C@H]3C(=O)N(C(C)CO)[C@@H]4C2=O)cc1 (stereo partly drawn)"
  CLASS ASSIGNMENT: "y"
- COMPOUND: "Cc1ccc(S[C@]2(C(=O)NCC(C)C)CC(=O)N(C(C)C)[C@@H]2c2ccc(CO)cc2)cc1"
  CLASS ASSIGNMENT: "y"

**Query** Tell me whether composite z-score is at least 0.08 here: `COc1ccc([Si](C)(C)[C@@H]2[C@@H](CC(=O)N3CCC[C@H]3CO)O[C@]3(C(=O)N(Cc4ccc(I)cc4)c4ccccc43)[C@H]2C)cc1`
**Result** n

**Query** Assess whether reported composite z-score for `C=C(COC)C(=O)CC[C@@H](OC(=O)c1ccccc1-c1ccccc1C(=O)O)c1cccc(OCCO)c1` sits at 0.08 or higher.
**Result** n

**Query** I'd appreciate it if you could say whether `COC(=O)[C@@]1(CCC(=O)OC(C)(C)C)COC(c2ccc(OCCCO)cc2)=N1` has composite z-score at least equal to 0.08.
**Result** y

**Query** Determine whether measured composite z-score meets or exceeds 0.08 for `[N-]=[N+]=Nc1ccccc1[C@H]1OC(c2ccc(OCCCO)cc2)=N[C@@]1(Cc1ccccc1)C(N)=O`
**Result** y

**Query** Hello, I need to know if `C=CCNC(=O)[C@@H]1[C@H]2C(=O)O[C@H](c3ccccc3)[C@H](c3ccccc3)N2[C@H](c2ccc(O)cc2)[C@@]12C(=O)Nc1ccc(C#Cc3ccc(OC)cc3)cc12` has measured composite z-score not below 0.08. Thanks!
**Result** y

###

Test: small-molecule microarray binders of probe aLefty2, primary screen, biochemical, biotinylated probe, 635/667 nm fluorescence (AID 1094);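 also: score merges spot fluorescence near 667 nm with spot signal-to-noise ratio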
Conditions: higher = more signal
MEASURED ENDPOINT: composite z-score
Reply: number alone, nothing else.

Use the examples below as a reference point.
- COMPOUND: "O=C(O)[C@H]1C[C@H]2C(=O)N[C@@H](Cc3ccccc3)C(=O)N2[C@H]1c1ccc(O)cc1"
  composite z-score: -0.0572
- COMPOUND: "C=CCNC(=O)[C@@H]1[C@H]2C(=O)O[C@H](c3ccccc3)[C@H](c3ccccc3)N2[C@H](c2ccc(O)cc2)[C@@]12C(=O)Nc1ccccc12"
  composite z-score: -0.189
- COMPOUND: "COCCOC(=O)N1C(=O)[C@@]2(c3cc(C#CC4(O)CCCCCC4)ccc31)[C@H](c1ccc(O)cc1)N1[C@H](c3ccccc3)[C@H](c3ccccc3)OC(=O)[C@H]1[C@@H]2C(N)=O"
  composite z-score: 0.178
- COMPOUND: "CC(C)[Si](C#C[Si](C(C)C)(C(C)C)C(C)C)(O[C@H](C)c1cn([C@H](C)c2ccccc2)nn1)C(C)C"
  composite z-score: 0.0137
- COMPOUND: "CCOC(=O)C[C@H]1[C@H](OC(=O)Cc2ccc3c(c2)OCO3)[C@@H](NC(=O)c2ccc3ccccc3c2)c2cc(OCCCO)ccc2N1C(=O)c1ccc2ccccc2n1"
  composite z-score: -0.0865

Then this compound:
Briefly, composite z-score measured for C[C@@H](OCc1ccccc1)C1NC(=O)[C@@]23C(=O)N[C@@H](Cc4ccccc4)C2[C@H](C)[C@@]2(C)O[C@H]2C3/C=C/C/C=C\CNC(=O)[C@@H]2CCCN2C1=O (stereo partly specified) : -0.0901

###

Assay: anti-His antibody binders, primary screen, artefact control for SMM control protein annotation, biochemical, small-molecule microarray, 635 nm fluorescence (AID 1128);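 also: score merges feature fluorescence with signal-to-noise for each printed compound spot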
Conditions: anti-His Alexa647 antibody binding, higher = more signal
MEASURED ENDPOINT: composite z-score
Response field accepts a number only; no unit should be typed.

Here are 6 molecules together with their reported answers.
- SAMPLE SMILES: "O=C(NCc1ccccc1)[C@@H]1c2ccccc2C(=O)N(Cc2ccccc2Cl)[C@H]1c1ccc(CO)cc1"
  MEASURED ENDPOINT: "composite z-score"
  OBS VALUE: 2.46
- SAMPLE SMILES: "COc1ccc([Si](C)(C)[C@H]2[C@H](CC(=O)N(CCO)Cc3ccccc3)O[C@@]3(C(=O)N(Cc4ccc(N5CCC5=O)cc4)c4ccccc43)[C@@H]2C)cc1"
  MEASURED ENDPOINT: "composite z-score"
  OBS VALUE: 0.122
- SAMPLE SMILES: "C=CCC1(CC=C)C[C@H]2CO[C@H](c3ccc(OC)cc3)N2C1=O"
  MEASURED ENDPOINT: "composite z-score"
  OBS VALUE: 0.413
- SAMPLE SMILES: "CCOC(=O)C[C@H]1[C@H](OC(=O)c2ccc(C(=O)c3ccccc3)cc2)[C@@H](NC(=O)Cc2ccc(OC)cc2)c2cc(OCCCO)ccc2N1C(=O)Cc1ccc(OC)cc1"
  MEASURED ENDPOINT: "composite z-score"
  OBS VALUE: 0.0446
- SAMPLE SMILES: "COCCCNC(=O)[C@@]1(CCS(=O)(=O)c2ccccc2)N=C(c2ccc(OCCCO)cc2)O[C@H]1c1ccccc1CN=[N+]=[N-]"
  MEASURED ENDPOINT: "composite z-score"
  OBS VALUE: 2.56
- SAMPLE SMILES: "CC(C)C(=C=CC[C@@H](O)c1ccc(CO)o1)CCO"
  MEASURED ENDPOINT: "composite z-score"
  OBS VALUE: 0.635

Now, please, on to the next molecule.
Given item `COc1ccc([Si](C)(C)[C@H]2[C@H](CCO)O[C@@]3(C(=O)N(Cc4ccc(N5C(=O)c6cccc7cccc5c67)cc4)c4ccccc43)[C@@H]2C)cc1` , the value recorded as its composite z-score is 0.21

###

Experiment: IGROV1 ovarian cancer cell cytotoxicity, dose response, PAX8 inhibitor project, plate reader, dry powder samples (AID 743043);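 also: more negative means fewer viable cells or more cytotoxicity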
Conditions: series mostly up to 35 µM
Results with a measured potency or affinity are listed apart. Records with an inconclusive call do not appear. Activity calls are given as the source filed them. No rule for the calls is given here.
MEASURED ENDPOINT: outcome

- SAMPLE SMILES: "CC(C)NC(=O)N(C)C[C@H]1OCCCC[C@H](C)Oc2ccc(NC(=O)Nc3ccc(C(F)(F)F)cc3)cc2C(=O)N([C@H](C)CO)C[C@@H]1C"
  outcome: "inactive"
- SAMPLE SMILES: "O=C(Nc1ccc(C(F)(F)F)cc1)Nc1ccc2c(c1)[C@@H]1C[C@@H](CC(=O)N3CCc4ccccc4C3)O[C@H](CO)[C@@H]1O2"
  outcome: "inactive"
- SAMPLE SMILES: "CCSCCc1nnc(NC(=O)Nc2cccc(C(F)(F)F)c2)s1"
  outcome: "inactive"
- SAMPLE SMILES: "C[C@H]1CN([C@@H](C)CO)C(=O)Cc2cc(NC(=O)Nc3ccc4c(c3)OCO4)ccc2O[C@@H]1CN(C)Cc1ccc(-c2ccccc2)cc1"
  outcome: "inactive"
- SAMPLE SMILES: "CNC[C@H]1Oc2ccc(NC(=O)NC(C)C)cc2CC(=O)N([C@@H](C)CO)C[C@@H]1C"
  outcome: "inactive"

// recorded outcome for `C[C@@H]1CN([C@H](C)CO)C(=O)c2cc(NC(=O)CCCCCC(=O)Nc3ccccc3N)ccc2O[C@@H](C)CCCCO[C@H]1CN(C)Cc1ccc(Cl)c(Cl)c1` : inactive

Documented outcome of `C[C@@H]1CN([C@@H](C)CO)C(=O)Cc2cc(NC(=O)NC3CCCCC3)ccc2O[C@H]1CN(C)Cc1ccc(-c2ccccc2)cc1` : inactive

###

Tested on: XIP peptide (Xip251-270) binding
Assay: small-molecule binders of XIP peptide, primary screen, biochemical, small-molecule microarray, fluorescence 635/667 nm, 0.1 µg/mL protein (AID 1182)
Conditions: fluorescent protein binding, 635 nm, higher = more signal, called active from +8 up or from −8 down
Dear colleague, classification is by composite z-score, with ranges listed here: one = under 0.3, two = from 0.3 up to 1, three = 1 and over

Recorded results for 5 compounds are shown here.
- COMPOUND: "CC(=O)NCCCC[C@@H]1NC(=O)[C@@H]2C[C@H](C(=O)O)[C@H](c3cccc(OCCO)c3)N2C1=O"
  CLASS ASSIGNMENT: "three"
- COMPOUND: "NC(=O)N1C(=O)C2C(C1=O)C1C=C(c3ccc(CO)cc3)C2C(C2CC2)N1Cc1cc2c(cc1Br)OCO2 (centres undefined)"
  CLASS ASSIGNMENT: "three"
- COMPOUND: "O=C1c2ccccc2[C@](Cc2ccccc2I)(C(=O)O)[C@H](c2ccc(CO)cc2)N1Cc1ccccc1Cl"
  CLASS ASSIGNMENT: "two"
- COMPOUND: "Cc1ccc(S[C@]2(C(=O)NCC(C)C)CC(=O)N(C(C)C)[C@@H]2c2ccc(CO)cc2)cc1"
  CLASS ASSIGNMENT: "one"
- COMPOUND: "[N-]=[N+]=NCc1ccccc1C[C@]1(C(=O)NCc2ccccc2)N=C(c2ccc(OCCCO)cc2)O[C@H]1c1ccccc1"
  CLASS ASSIGNMENT: "one"

**Query** Bin? `COc1ccc(C#Cc2ccc3c(c2)[C@]2(C(=O)N3)[C@H](c3ccc(O)cc3)N3[C@H](c4ccccc4)[C@H](c4ccccc4)OC(=O)[C@H]3[C@@H]2C(N)=O)cc1`
**Result** one

**Query** Could you tell me which band `CCOC(=O)C[C@H]1[C@H](OC(=O)c2ccc(-c3ccccc3)cc2)[C@@H](NC(=O)c2ccccc2)c2cc(OCCCO)ccc2N1C(=O)c1ccccc1` belongs to?
**Result** two
